Record form. Attribute: TGI. Fill in for each entry.
# System: LOX IMVI melanoma
# Measurement Protocol: NCI tumour cell line growth inhibition, 48 h

The value of TGI recorded for C#C[C@]1(O)CCC2C3CCc4cc(Oc5nc(F)nc(-n6c(C)nc7cc8ccccc8cc76)n5)ccc4C3CCC21C (stereo not given in full) when tested on LOX IMVI melanoma reads > 100 µM

The value of TGI recorded for Cc1cc(C)nc(Sc2c([N+](=O)[O-])ncn2C)n1 when tested on LOX IMVI melanoma reads > 100 µM

The value of TGI recorded for COc1ccc(C(=O)NCCC2=CCCCC2)cc1 when tested on LOX IMVI melanoma reads > 100 µM

The value of TGI recorded for COC(=O)c1cc(C)n(CN(Cn2nc(C(=O)OC)cc2C)c2ccccc2)n1 when tested on LOX IMVI melanoma reads 42.3 µM

The value of TGI recorded for CCc1nnc(CC)n1N1C(=O)CCC1=O when tested on LOX IMVI melanoma reads > 100 µM

The value of TGI recorded for Cc1c2c(nn1-c1ccc(S/N=C3\SCC(=O)CN3Cc3ccccc3)cc1)-c1ccccc1CC2 when tested on LOX IMVI melanoma reads 25 µM

The value of TGI recorded for O=C1C=C(c2[nH]c3ccccc3c2C2=CC(=O)c3ccccc3C2=O)C(=O)c2ccccc21 when tested on LOX IMVI melanoma reads 59 µM

The value of TGI recorded for Cc1n[nH]c(=O)n1/N=C/c1ccc([N+](=O)[O-])cc1 when tested on LOX IMVI melanoma reads > 100 µM

The value of TGI recorded for N[C@H]1C[C@@H]1c1ccc(-c2cccc(O)c2)cc1 when tested on LOX IMVI melanoma reads 29.7 µM

The value of TGI recorded for S=c1nc2sc3c(c2c(Nc2ccccc2)[nH]1)CCCC3 when tested on LOX IMVI melanoma reads > 100 µM

The value of TGI recorded for CCCc1cn2c(/C=N/N=C(N)N)c(-c3c(OC)ccc(OC)c3[N+](=O)[O-])nc2s1 when tested on LOX IMVI melanoma reads 9.13 µM

The value of TGI recorded for O=C1NC(=NCc2ccccc2Br)S/C1=C\c1ccc2ncccc2c1 when tested on LOX IMVI melanoma reads > 25 µM

The value of TGI recorded for c1cc2ccc3cc4ncccc4c4ccc(c1)c2c34 when tested on LOX IMVI melanoma reads > 100 µM

The value of TGI recorded for Cn1cc(C2=C(Oc3ccccc3)C(=O)NC2=O)c2ccccc21 when tested on LOX IMVI melanoma reads > 25 µM

The value of TGI recorded for Cc1cc(Nc2nc(-c3ccc(F)cc3)nc3ccccc23)n[nH]1 when tested on LOX IMVI melanoma reads 11.2 µM

The value of TGI recorded for Nc1nc(Cl)nc(NCc2ccccc2)n1 when tested on LOX IMVI melanoma reads > 100 µM

The value of TGI recorded for COC(=O)CN1Cc2cc(C)cc(c2O)CN(CC(=O)OC)Cc2cc(C)cc(c2O)CN(CC(=O)OC)Cc2cc(C)cc(c2O)C1 when tested on LOX IMVI melanoma reads > 100 µM

The value of TGI recorded for C=CCN1C(N)=C(C#N)C(C#N)(C#N)C1CCC (stereo not given) when tested on LOX IMVI melanoma reads > 100 µM

The value of TGI recorded for COc1cccc2c(=O)c3c(n(C)c12)OC(C(C)C)C3 (stereo not given) when tested on LOX IMVI melanoma reads > 100 µM

The value of TGI recorded for COC(=O)[C@@]12C(=O)CCC(=O)C1C1C(=CC2C)O[C@@H]2OC3(CCCCC3)O[C@H]12 (stereo not given in full) when tested on LOX IMVI melanoma reads > 100 µM

The value of TGI recorded for COc1ccc(-c2nc(N)n(C)c2SSc2c(-c3ccc(OC)cc3)nc(N)n2C)cc1 when tested on LOX IMVI melanoma reads 4.22 µM

The value of TGI recorded for COc1c2c(cc3occ(-c4ccc(CC=C(C)C)cc4)c(=O)c13)OC(C)(C)C=C2 when tested on LOX IMVI melanoma reads > 100 µM

The value of TGI recorded for O=C(Cc1nc(-c2ccccc2)cc(=O)n1-c1ccccc1Cl)c1ccncc1 when tested on LOX IMVI melanoma reads > 100 µM

The value of TGI recorded for CCNCC(O)COc1ccc2c(c1)[n+]([O-])nc(N)[n+]2[O-] (stereo not given) when tested on LOX IMVI melanoma reads 27.3 µM

The value of TGI recorded for Nc1cccc(C2CCCc3c2[nH]c2ccccc32)c1 (stereo not given) when tested on LOX IMVI melanoma reads 25.4 µM
